Experiment: label from the status in PepcDB records
MEASUREMENT TYPE: protein production

# SEQ STRING, RESULT
rows = [
    ("MATRMTTIRRQTKMAIGQRIKYFRNRIGMTQKQLGEQLGFKGKTSDVRMAQYESEARVPKIDLVKQMSQIFDINTHALTVPDIDTHIGLMHTLFALEDMYGLKVKNVDGQPHLWLDSSISAPSSSVDEMFRAWMEQADKLENGEISKEEYDEWRYKYPELDTYQKRAKVPSQELSDYLVKELTKKEK", "failed"),
    ("MKTGKELKPGTVIRIDNDPWLVQKAEFTKSGRNSAIMKTKLKNLLTGYKTETVYGADDKLDDVILDRKEATLSFISGDTYTFMDTTDYTMYELNAEDIEAVLPFIEEGMTDVCEAVFFEDRLVSVDLPTTIVRQVDYTEGSARGDTSGKVMKPAKLKNGTELSVADFIEIGDMIEIDTREGGSYKGRAKV", "failed"),
    ("MKKLINIILLSLIFVFCFNLKVLANDNLESSKEKIDNDSRIERFYDYINNLETEEDILGNMSAKEYIMNYLESGEDPITLKKIGASILSYIFRELNIVLKFIASILVIALLSALLKNLQDAFNIEEGVTQIAFFACYALLIMLLTKSFFISLNLGKEVLTSIIDFMNVIVPVIVMLIATSGGVTSAVTIDPIVLGAVSITPRIYTYFLFPLILAYFTLQFVNNLSSEFKIDRMCKFIKQVVMISQGFILTIFVGILTLRGMTADTLDAVAVKTVKFAVDNFVPIVGKAFSDAITTVAGYSLAMKSVITSLGVIVIVVIVIYPIIKIGLMAICFKLTSAVIEPVVDSKISSSVETVGEALFMIMSCIISVSIMFFIMASMMATAGNFIVGG", "failed"),
    ("MAQINFEGLRELHDCVNYLLHHCPKTRESLSQQGQEKWTEQVSEASLRMLDICNVSKDVMTLVKHSLQDLQLTLRGNESSDVNEKIAAYNRYKNKLKKETLKCLNCLKNMKGNEGRVAMPIEQNLLFVTEVLKEVRRVVVTMVESLFSLGCIPWLEKRSSKGSLSSIFSIRSSYLLDDEWDETAVQSATTRLEAAEITVVELEIELESIFRRLIQTRVSLLNILTN", "failed"),
    ("MDFDLRWLFIAASLGLCAWAGWQFVHRLARARLLGDVPTSRIRSAAQGFVELYGVLEEGPEGPLQAPLTGKPCLWWRYRIEVEEKRSGREKAWRTVDKGASESPFSLRDATDACLVDPRGAEVRPLTQQRWEAFREAPIDTLRLLESFGTLVGGERLYRYTEERLHAGEPLYALGEFRSSGGGRQGLDAERAQGAVIREWKGDFHGLLARFDSDGNGELDEREWNRVRLAARLEAEDRHRASSAAPTRHRLGKPGEAHPFILSSQGEDDLAVQLRRQAAGAALLCLGSALLAGWLFSRLF", "failed"),
    ("MAAYQVLIVGAGFSGAETAFWLAQKGVRVGLLTQSLDAVMMPFLPPKPPFPPGSLLERAYDPKDERVWAFHARAKYLLEGLRPLHLFQATATGLLLEGNRVVGVRTWEGPPARGEKVVLAVGSFLGARLFLGGVVEEAGRLSEASYPDLLEDLSRLGFRFVEREGEVPETPSTPGYRVRYLAFHPEEWEEKTFRLKRLEGLYAVGLCVREGDYARMSEEGKRLAEHLLHELG", "not failed"),
    ("MNVDFINPFLDSLLNVLKTMANMELKPGKPNLKKDNLAKGDVSGLIGMVGPQTKGSLSITFEETLILEIMNKMLGEKPESIDEEVTDLVGELTNMVTGGAKNLLSDKGYEFDMATPIVVSGKNHTIAHKSDGQKIIMPFSSIYGTAYIEICFEG", "not failed"),
]

* * *

Assay: label from the status in PepcDB records

# SEQ STRING, protein production
rows = [
    ("MGKDFKSLVTRCIYVGKMNDNAKKLKIATEELKDLGNNVMKRVKLCEEQQQMKRLDKVQTWLRQADTVIKEAEEYFLMSSSSSSSGLISSSHKMEKKICKKLKEVQEIKSRGMFEVVAESTGGIGGGAGGGLTIKDSDEQTIGLEAVSGLVWRCLTMENTGIIGLYGVEGVGKTTVLTQVNNRLLQQKANGFDFVLWVFVSKNLNLQKIQDTIREKIGFLDRTWTSKSEEEKAAKIFEILSKRRFALFLDDVWEKVDLVKAGVPPPDAQNRSKIVFTTCSEEVCKEMSAQTKIKVEKLAWERAWDLFKKNVGEDTIKSHPDIAKVAQEVAARCDGLPLALVTIGRAMASKKTPQEWRDALYILSNSPPNFSGQIS", "failed"),
    ("MALVRKDVVKLAAPIFVEQLFVTLMGMINTMMAGHIGKEAVSAIGMIDSINNIFIAFFSALAVGGTVVVAQYIGQNNIKKANESTKQALYSTIIIAFVITIIMAILKGPLLGFLFGSAEKEVILDANSYFGITLLTYPLITIDLVSNGILRGAGDTKTPMKISILMNVLNVAFTALFIWGIKINGTVVVKSLGITGAALGIATARTIGGIIILIVMVRGSRIVQLKKLTEFKFDMTLLKPIFGIGVPASVESLLFNGGKLIMQIFIVGMGTVAMASNTIVNSISNFLNIPGNSLVIAATALVGQHMGRDDDKGAEKCLSYITKLSTVLLAIVGILSILFSRHLPSPVYWK", "failed"),
    ("MDFKTVMQELEALGKERTKKIYISNGAHEPVFGVATGAMKPIAKKIKLNQELAEELYATGNYDAMYFAGIIADPKAMSESDFDRWIDGAYFYMLSDYVVAVTLSESNIAQDVADKWIASGDELKMSAGWSCYCWLLGNRKDNAFSESKISDMLEMVKDTIHHSPERTKSAMNNFLNTVAISYVPLHEKAVEIAKEVGIVEVKRDNKKSSLLNASESIQKELDRGRLGFKRKYVRC", "not failed"),
    ("MDQKPQPAKTHATEVTVLEGKTMGTFWRASIPGIDAKRSAELKEKIQTQLDADDQLLSTYKKDSALMRFNDSQSLSPWPVSEAMADIVTTSLRIGAKTDGAMDITVGPLVNLWGFGPEQQPVQIPSQEQIDAMKAKTGLQHLTVINQSHQQYLQKDLPDLYVDLSTVGEGYAADHLARLMEQEGISRYLVSVGGALNSRGMNGEGLPWRVAIQKPTDKENAVQAVVDINGHGISTSGSYRNYYELDGKRLSHVIDPQTGRPIEHNLVSVTVIAPTALEADAWDTGLMVLGPEKAKEVVRREGLAVYMITKEGDSFKTWMSPQFKSFLVSEKNLEHHHHHH", "not failed"),
    ("MRYLADHDDLTGLHNRRALLQHLDQRLAPGQPGPVAALFLDLDRLKAINDYLGHAAGDQFIHVFAQRIGDALVGESLIARLGGDEFVLIPASPMSADAAQPLAERLRDQLKDHVAIGGEVLTRTVSIGVASGTPGQHTLEHHHHHH", "not failed"),
    ("MTADLFDGLDDAPRRQDIAPGAALLSGFARANERELLAAIDAVVARAPFRHMMTPGGHTMSVAMTSCGSVGWVTDRRGYRYSPNDPDSATPWPKMPAVLRDLAQRAAADVGFAGFDPDACLINRYVPGAKMALHQDKDEADFSAPIVSVSLGLPAIFQFGGMARSDKPRRYELRHGDVLVWGGPSRLVYHGVLTLKDGEHPLLGRQRINLTFRKAL", "failed"),
]

* * *

Assay: label from the status in PepcDB records

# SEQ STRING, protein production
records = [
    ("MTWSFTLGRLFGSELKVHVTFFLLIGWIGVSAYQMGGWPSAVENTAFVLALFACVVAHEYGHALTARRYGIRTPDITLLPIGGLARLDRMPEKPGQEIVVALAGPAVNVAIWAALTLVGVDTRFETLAAIDSAEPDFLGRLAMVNLFLAVFNLIPAFPMDGGRVLRAALSLTMDRVRATRIAAAAGQLVALLFGFAGLSGGNPVLVLIAVFVFIAANAEAQDVAMRAVTRRLLARDAMITRFEALGPTDTLATAAQAVLHTTQHEFPVLDGEGHLLGFVTRARLFAALAADHPRSDPAETVMDREIPQVPLASGLETVLDALYQGAPAVAVTSADGRMLGYVTRENVGELMVIQGR", "failed"),
    ("MSTRWLLLAAFAAGAALFSSFLKALFFAACLACAFRPLSRRLEAWRGPLVAAGLTTALAGMCLVIPVAVVGSLAAPQAVQGLAVLDGLRESNWFTSPEAQQLVDDIDARLRDLPGLEGGLRGLARNAAGILGTAARTALAGGVGLAGGALNAVLQGFIVLMLIFVFTAYARHIQRFALALLPMPRAMLDRCVTAFRGAVVGVLAGVVLVAAIQGVLCGIGFAVAGVPQAAFWGFIAAMVAPIPVVGTMAVWIPACAWLWFAGKTTAAIGLVLWSAIIVSGSDNILRPIFLKTGIEAPIALIFLAIICGLAAFGPMGLLLGPVLLALGLQLAREGLPGAPGVSGVSGAVEPRE", "failed"),
    ("MDSGESGPQQWAGVVKVNDRMGYVTFTDAAGTELIPTNTIPVTLNARMAYIYCQVDEGQDLSTNPKSIKITLLADPTGIDATAITTPKVGESGDVTTNAPVGSLSFVSGYSTVAPFQFSENTIVLPVLYRVKNVTTTEDIKNELAKHTFTLVCYTDDIKSGDTILKLYLRYKVEDEPAAIAERATRTSSFKAYEISQILREYTLKSGQTKPAKITIVAQQNEYNNKLEDTSTIEKVYEIEYKTAE", "not failed"),
    ("MVSANREMAVYCFDTLVSHYNNEETPPPAFEEANHPLFVTWKKIVNGGEPRLRGCIGTLEARRLISGFKDYALTSALRDRRFPPIQAKELPSLQCTVSVLTDYEDAEDYLDWEVGKHGIIIEFTEPETNTKRSATYLPEVPAHEGWTKIEAIDSLVRKAGYNGVITEAVRRRINLTRYQSTLFSMHYSEYLSYVKATRGVVGPVINGINKHAFA", "failed"),
    ("MDRLSYAIGDKAVLNNIRVQFQPGSVTALLGPNGAGKSTLLKALCQEIPSAQGSIKLGHCQLVDWPRAELAKSLAVLPQHASLTFPFTVDEVVAMGLYPLTLSQKEGQQLVTKWLAEVGVLHLARRSYPTLSGGEKQRVQLARVLTQLSQSPFPPILLLDEPTSALDLAQQHKVLALAKNLAHKHAYTVIVVLHDLNQAARYSDRVIVLKQGEIVSEGTPNDALSIDIIRQVWDYEPEFIPAPQGDYPLIF", "failed"),
    ("MENSRHNEFFLPLLLCIILPIIFMLTTNIKILRKTFSFILQNSFLQSFVTIFISIILEALPFIIIGVFLSSLIQVFISEETLSRIIPKNIVLGILSAATIGLIFPVCDCAIVPIVRRLLKKGLPLPIGITFMLSVPIINPVVLTSTYYAFLSNPHAPLIRAVAGWISAVLIGFIINKLDKSKTKQAKLHEILFNERVYMPKNNPIVTSNHNHEHHKCSCGHVHHEEEKFSALTLVHVLDHVSLELQDVGRFVIMGAFLSALMQTFIPRKYILSIGHGNISSIIVMMILAYVLCVCSETDAFIARTFVNQFTNGSIVAFLIFGPMIDIKNTLMLCETFNLKFVFKLVSIIIVVCFLIGLAFNFVKIPL", "failed"),
    ("MSEVVKKFMYLNRKAPYGTIYAWEALEVVLIGAAFDQDVCVLFLDDGVYQLTRGQDTKGIGMKNFSPTYRTLGDYEVRRIYVDRDSLEARGLTQDDLVEIAFEDMETEEEFDNIVEVIDSARVSELMNESDAVFSF", "not failed"),
    ("MNQLPNCPKCLSEYCYEDGDVLICPECTHEWPKNSNNNDEESAKIIKDANGNLLQNGDTITVVKDLKIKGSSQVIKVGTKVKNIRLVDGDHDIDCRIDGIGAMKLKSQFVKKILEHHHHHH", "failed"),
    ("MFKHCLICTDFSDGLQRLAGFVEELSLSGITKLIFLHTVSVWEDEHIADVDESKLKEAKTYLESLVGQVPPGIEVKVEVSSVRYVDLVNQLVEQEAIDLIINGMPVRSNLESKLFGSHTLSLAKSTKVPVMILRPQLVSTYTVEEMALRCQHLWRNLLVPYDASSAGNYLIERLKSALEKAPPGKVESCYFLSILEDGMRRPELLEIRRQEAEAKLAEIKQQFSPLVPNIITEVRHGSPVQEILDTAFVNDITAIAVASRRATLLDWTVPSLTDSILNRSWFPLLFFSPKG", "failed"),
    ("MWHIFERFVNEYERWFLVHRFAYLSELQAVKCLLPEGRGVEIGVGTGRFAVPLKIKIGVEPSERMAEIARKRGVFVLKGTAENLPLKDESFDFALMVTTICFVDDPERALKEAYRILKKGGYLIVGIVDRESFLGREYEKNKEKSVFYKNARFFSTEELMDLMRKAGFEEFKVVQTLFKHPSELSEIEPVKEGYGEGAFVVIRGTKK", "not failed"),
    ("MKYRQWVLGAGFTLSVGLSSVAHAFSIPQPANEIAASKFVHIQVQAEQGDADAQFLLGLMFLSGRYVQQEVPSGLHWITLAAEQQHEKAQQTLADLSFEGQLIKRDLAVAERWYKDMGERGNRWAQFRLGFIYASGGDGVKRNCGKAVEQFTRVGDDIALGNVAWILATCPEAEYRDGNKALELSLQLLKVNENDPTNLDNLAAAYAEVGDFGAAVSTQQKAIAALKMTAEATKTDEFKQRLHSYEQKRAYRETLRLLE", "failed"),
]
